# procedure.details: Unbound fraction in mouse plasma at 2 uM incubated for 6 hrs by LC-MS/MS analysis
# Assay type: ADME, cell-free
metric: fraction unbound at 6 h, 2 µM

                           smiles_structure                         metric  test_value
0  COc1ncc(N2CCc3ncnc(-c4ccnc(NC5CCN(C)CC5)c4)c3C2)cc1C  fraction unbound at 6 h, 2 µM         0.3

----------
# procedure.details: Oral bioavailability in BALB/c mouse at 3 mg/kg by LC-MS/MS analysis
# Assay type: ADME, organism-based
# run.parameters: in vivo
metric: bioavailability (%)

>>> df
                           smiles_structure  test_value
0  COc1ncc(N2CCc3ncnc(-c4ccnc(NC5CCN(C)CC5)c4)c3C2)cc1C          97

----------
# procedure.details: Tmax in BALB/c mouse at 1 mg/kg, iv or 3 mg/kg, po by LC-MS/MS analysis
# Assay type: ADME, organism-based
# run.parameters: in vivo
metric: Tmax (h)

In [3]: df
Out[3]:
                           smiles_structure  test_value
0  COc1ncc(N2CCc3ncnc(-c4ccnc(NC5CCN(C)CC5)c4)c3C2)cc1C           6
